- System: HEK-293T
- assay-summary: Multiplex assay against HEK293T
- Assay type: toxicity, cell-based
- assay-conditions: human, 12 h, 1 µM, compound concentration 1 uM, number of replicates 2
property-label: Population Fragmented Nuclei (%)
Quick reminder: number only, in %, skip the unit.

As a guide, the following entries are already answered.
CCn1ccc(Nc2ncc3c(n2)-c2c(nn(C)c2-c2ccc(-c4cnn(C)c4)cc2Cl)CC3)n1 3
CC1=C(C)C(=O)C(C(C)(C)CC(=O)N(CCCCSC[C@H]2O[C@@H](n3cnc4c(N)ncnc43)[C@H](O)[C@@H]2O)Cc2cccc(-c3ccc(Cl)cc3)c2)=C(C)C1=O 4
Cc1cc(NC(=O)c2cccc(NC(=O)/C=C/CN(C)C)c2)ccc1Nc1nccc(-c2cccnc2)n1 3

Field: Population Fragmented Nuclei (%) (HEK-293T). Entry: COc1ccc(NC(=O)c2ccc(-c3ccc(-c4noc(C)n4)cc3C)cc2)cc1OCCN(C)C.Cl
3

Same lookup for N=C(N)NCCC[C@H](NC(=O)COCC(c1ccccc1)c1ccccc1)C(=O)O.O=C(O)C(F)(F)F , please.
2

Same lookup for COc1cccc(Cn2cc(C(=O)Nc3ccc(C)c(S(=O)(=O)N4CCOCC4)c3)c(-c3ccc(C)cc3)n2)c1 , please.
2

Same lookup for COc1cc(Nc2cnc(C#N)c(O[C@H](C)CN(C)C)n2)ncc1-c1cnn(C)c1 , please.
3

Same lookup for CN1CCCN(C(=O)c2cccc(-c3ccc(/C=C4/C(=O)Nc5ccc(Cl)cc54)o3)c2)CC1 , please.
4
